test: Toxicity liver stage against HepG2, at 10uM; type: cell-based; set-up: test concentration 10 uM, cell line HepG2-A16-CD81EGFP; conditions: human, HepG2-A16-CD81EGFP cells; read-out: INHIBITION

| compound | output-unit | cytotoxicity at 10 µM |
| --- | --- | --- |
| Cc1cc(NC(=O)c2ccc(F)cc2Cl)n(C)n1 | % | -77.5 |
| CC(=O)N1CCCC1c1nc(CN(C)C(=O)C(C)C)cc(N(C)C)n1 (configuration not stated) | % | -2.62 |
| Cn1[nH]c(C2CCC2)c(-c2ccc3c(c2)OCO3)c1=N | % | -42.3 |
| Cn1cc(C(=O)N2CCCC(c3cnccn3)C2)cn1 (configuration not stated) | % | -10.5 |
| O=C(CCC(=O)N1CCC(c2noc3cc(F)ccc23)CC1)NC1CC1 | % | 5.09 |
| CC(NC(=O)NCCn1ccnc1)c1ccc2c(c1)CCC(=O)N2 (configuration not stated) | % | -18.1 |
| Cn1cnn(Cc2ccccc2F)c1=O | % | -3.09 |
| Cn1nc(Cn2ccnc2)c2c1CN(c1nccs1)C2 | % | 3.61 |
| CNc1cc(C)nc(C2CN(Cc3ccc(Cl)cn3)CCO2)c1 (configuration not stated) | % | -26.2 |
| Cn1ccnc1CN1CCC(CCCc2ccccn2)(C(N)=O)CC1 | % | -1.31 |
| O=C1CC(c2ccc(C(=O)O)cc2)c2ncn(-c3cccc(F)c3)c2N1 (configuration not stated) | % | -4.74 |
| CCc1ccccc1NC(=O)c1cccc(N(C)S(C)(=O)=O)c1C | % | -4.68 |

----------
assay: Toxicity liver stage against HepG2, at 10uM; assay type: cell-based; design: test concentration 10 uM, cell line HepG2-A16-CD81EGFP; conditions: human, HepG2-A16-CD81EGFP cells; read-out: INHIBITION
Recorded cytotoxicity at 10 µM by entry

| compound | cytotoxicity at 10 µM |
| --- | --- |
| CCN1CCN(c2ccc(C(=O)NC(C)C(=O)N(C)C)cc2)CC1 (stereo unspecified) | -4.98% |
| Cc1ccccc1C1(C(=O)NCCN2CCOCC2)CCOCC1 | -3.07% |
| Cc1ncc(CNC(=O)c2oc3ccccc3c2CN(C)C)s1 | 13.5% |
| CN1C[C@@H]2CN(Cc3ccsc3)CCC[C@]2(C(=O)O)C1 | -141% |
| Cc1nc(C)c(C(=O)N2Cc3ccccc3OCC2CN(C)C)o1 (stereo unspecified) | 2.2% |
| OC(CN1CCCCc2ccccc21)Cn1cccn1 (stereo unspecified) | 5.55% |
| Cc1cccc(-c2noc(CN3CCOCC3C)n2)c1 (stereo unspecified) | -11.9% |
| CC(=O)N1CCN(C(=O)c2ccc3ccn(C)c3c2)CC1 | -0.173% |
| COc1ccc(CNC(=O)c2nc3c(s2)CCN(C(C)=O)CC3)cc1 | -76.6% |
| O=C(N[C@@H]1CN(Cc2ccc3[nH]ccc3c2)C[C@H]1O)c1cscn1 | -7.11% |
| CCc1nsc(NC2CCOC3(CCCC3)C2)n1 (stereo unspecified) | 13% |
| Cc1ncc(C(=O)Nc2cncnc2N(C)C)c(Cl)c1Cl | 0.776% |
| Cc1ccc(O)c(CNC2CCCN(Cc3noc(C4CC4)n3)C2)n1 (stereo unspecified) | -5.59% |
| Cc1nnc2n1CC(CNCc1nc(-c3ccsc3)no1)CC2 (stereo unspecified) | -4.68% |
| O=C(CCc1ccccc1)C1CCCN(C(=O)c2ncc(F)cc2F)C1 (stereo unspecified) | -17.4% |
| CC1CCN(C(=O)[C@@H]2C[C@@H]3CCN(Cc4nccs4)C[C@H]3O2)CC1 | -107% |
| CC(C)(C)C(=O)N1CCCC1(C(=O)N1CCCC1)c1cnccn1 (stereo unspecified) | 4.84% |
| CN(C)C1CCCN(C(=O)NCCNC(=O)C2CCCCC2)C1 (stereo unspecified) | -1.69% |
| COc1ncnc(N)c1CNCC(C)Oc1ccccc1Cl (stereo unspecified) | 0.732% |
| Cc1cccc(CN2C[C@@H]3COC[C@]3(COc3cccnc3)C2)n1 | 11.4% |
| CCC(NC(=O)C1CCN(S(=O)(=O)N(C)C)CC1)c1ccc(C)c(C)c1 (stereo unspecified) | -1.02% |
| O=C(Cc1c(F)cccc1Cl)Nc1cc(N2CCCC2)ncn1 | -2.85% |
| Cc1ccc([C@]2(O)CC[C@H]3CN(Cc4cccc(F)c4F)C[C@H]32)nc1 | -8.38% |
| CN(c1ccccc1C(=O)O)S(=O)(=O)c1cccc2cccnc12 | -0.996% |
| CCS(=O)(=O)N1CC(=O)N(CCOc2ccccc2)CC(O)C1 (stereo unspecified) | -0.739% |
| CCCOc1ccccc1CN[C@@H]1CCC[C@H]1Cc1cc(C)no1 | -6.86% |
| CCc1n[nH]c(C2CN(C(=O)CCc3cscn3)CCO2)n1 (stereo unspecified) | -8.42% |
| CCN1CCN(CCNC(=O)c2sc(C(C)C)nc2C)CC1 | 6.23% |
| COCCC1(CO)CCCN(C(=O)c2cccnc2O)C1 (stereo unspecified) | -50.7% |
| Cc1cccc(-c2nc(CN3CCc4cncnc4C3)no2)c1 | -10.4% |
| CS(=O)(=O)N1CCc2[nH]cnc2C12CCN(C1CCOCC1)CC2 | -4.52% |
| COc1ccc(-c2cnc3n2CCNC32CCN(S(C)(=O)=O)CC2)cc1 | -2.72% |
| Cc1cc(N2CCC(N(C)Cc3cc(=O)c(O)co3)CC2)nc(C)n1 | 2.34% |
| O=C(c1cccc(O)c1)N1CCN(Cc2nnc(C3CCC3)o2)CC1 | -8.52% |
| CC(=O)N1CCN(C[C@H]2CC[C@@H](Cc3ccc4ncccc4c3)O2)CC1 | -9.14% |
| CCc1cc(N2CCN(C(C)=O)CC2)n2nc(C)c(C)c2n1 | 3.96% |
| Cc1ccc(-c2cc(CS(=O)(=O)NC3CCCNC3=O)on2)cc1 (stereo unspecified) | -172% |
| CC(C)N(CC(N)=O)CC(=O)N(C1=CCCCC1)C1CC1 | -0.429% |
| Cn1ncc2c(=O)[nH]c(CN3CCCC3Cc3ccc(F)cc3)nc21 (stereo unspecified) | 0.301% |
| O=C(NCc1cccnc1)[C@H]1CN2CCC1C[C@@H]2Cn1cc(CO)nn1 (stereo partly specified) | -0.843% |
| CC1Oc2c(cccc2C(=O)N2CCCCCC2)NC1=O (stereo unspecified) | -6.81% |
| CC(=O)Nc1ccc([C@@H](O)[C@H]2COCC(=O)N2CC(C)C)cc1 | -6.6% |
| CC(Cc1ccco1)NC(=O)Nc1ccc(N2CCOCC2)nc1 (stereo unspecified) | 0.813% |
| CN(Cc1ccc2c(c1)OCCO2)Cn1nc(C(C)(C)C)ccc1=O | -12.4% |
| CN(Cc1ncnn1C)C(=O)CCCn1ccc2cc(Cl)ccc21 | 14.7% |
| Cc1nn(C)c(C)c1S(=O)(=O)N(C)Cc1nn(C)c(Cl)c1Cl | -3.78% |

----------
assay: Toxicity liver stage against HepG2, at 10uM; format: cell-based; parameters: test concentration 10 uM, cell line HepG2-A16-CD81EGFP; conditions: human, HepG2-A16-CD81EGFP cells; read-out: INHIBITION
value-type: cytotoxicity at 10 µM (%)

| compound | observed-value |
| --- | --- |
| CCc1nc(CN2CCCC(NCc3cnn(C(C)(C)C)c3)C2)no1 (centres undefined) | -6.77 |
| CSc1ccc(C(=O)N2CC(=O)N(Cc3cccs3)CC(O)C2)cc1 (centres undefined) | 2.31 |
| Cc1cc(Br)ccc1NCc1ccc(C(=O)N(C)C)[nH]1 | 5.68 |
| CCN1CC2(CC1=O)CN(Cc1ccoc1)CCN(C(=O)C(C)C)C2 (centres undefined) | 9.14 |
| CCCN(C(=O)c1ccc(-n2ccnn2)cc1)c1cccnc1 | 13.8 |
| CC(C#N)CN(C)C(=O)c1cn(-c2ccc(Br)cc2)cn1 (centres undefined) | 13.6 |
| COCCN1CCO[C@H]2CN(Cc3cccc(C)n3)C[C@H]21 | -116 |
| CCc1cnc(CN(C)C2CCN(CCNS(=O)(=O)CC)C2)o1 (centres undefined) | 8.94 |
| CC(C)S(=O)(=O)c1nnc(CCNC(=O)OC(C)(C)C)o1 | 9.28 |
| CNS(=O)(=O)c1ccc(CN2CCCN(c3ccccc3)CC2)cc1 | 10.9 |
| COCCOc1ccccc1C(=O)N1CCCCC1c1nccs1 (centres undefined) | 0.642 |
| O=C(c1cccc(N2CCCC2=O)c1)N1CCCC(n2cccn2)C1 (centres undefined) | -8.22 |
| COCCN(Cc1cccc(C#N)c1)Cc1nnsc1Cl | 7.96 |
| COc1nn(C)c2c1CCCN(S(=O)(=O)c1cccc(C)c1)C2 | -133 |
| COC[C@@]12CCO[C@@H]1CCN(C(=O)c1ccc(F)c(F)c1)C2 | -2.59 |
| Cc1cc(C)nc(N2CCC(C(=O)Nc3n[nH]c(C(C)C)n3)CC2)n1 | 4.07 |
| Cc1nc(C)n(CC2CN(CCCOc3ccc(F)cc3)CCO2)n1 (centres undefined) | -4.26 |
| Cc1cc(C2CCC2)nc(N(C)Cc2cnccn2)n1 | -1.86 |
| Cn1cc(CNC2CC3(CCN(CC4CC4)CC3)c3ccccc32)cn1 (centres undefined) | -8.22 |
| COCCN1C[C@@H]2[C@@H](OC)CCN(Cc3cccc(C)n3)[C@@H]2C1 | -9.41 |
| CC(Nc1nc2c(cnn2C)c(=O)[nH]1)c1ccc(F)cc1 (centres undefined) | 16.6 |
| Cc1ccc(C(=O)N(C)CCOc2ccccc2F)c(=O)[nH]1 | -136 |
| COCC(C)N(C)C(=O)c1ccc2nncn2c1 (centres undefined) | -1.37 |
| Cc1nn(C)c2c(NCCCn3cccn3)ncnc12 | -0.472 |
